# Tested on: CD2F1 mice, L1210 leukemia ip, survival T/C
# assayComment: NCI In Vivo Anticancer Drug Screen. Data for tumor model L1210 Leukemia (intraperitoneal) in CD2F1 (CDF1) mice
# conditionLabel: endpoint: mean survival time; dose: 100.0 mg/kg/injection; schedule: Q04DX003 (ip); vehicle: saline with Tween-80; higher = longer survival
Toxic doses and inconclusive results are not listed.
quantityKind: T/C

{"compound": "O=C1OC(=O)c2ccc([N+](=O)[O-])c3c([N+](=O)[O-])ccc1c23", "result": "92 % of control"}
{"compound": "C=CCCCCCCCCC(=O)NCC1CCCCO1 (configuration not stated)", "result": "94 % of control"}
{"compound": "C(=N/N=C/c1ccc2c(c1)OCO2)/c1ccco1", "result": "93 % of control"}
{"compound": "CCOC(=O)c1c(N)sc2c1CCN(Cc1ccccc1)C2", "result": "98 % of control"}
{"compound": "Cn1c(=O)cc(O)c2ccccc21", "result": "101 % of control"}
{"compound": "C=CCC1(C(=O)OCC)CCCCC1=O (configuration not stated)", "result": "103 % of control"}
{"compound": "Nc1nc2nc3c(nc2c(=O)[nH]1)CN(c1ccc(C(=O)O)cc1)C3=O", "result": "95 % of control"}

* * *

# Tested on: CD2F1 mice, L1210 leukemia ip, survival T/C
# assayComment: NCI In Vivo Anticancer Drug Screen. Data for tumor model L1210 Leukemia (intraperitoneal) in CD2F1 (CDF1) mice
# conditionLabel: endpoint: mean survival time; dose: 100.0 mg/kg/injection; schedule: Q01DX009 (ip); vehicle: saline with Tween-80; higher = longer survival
Inconclusive results and toxic doses are left out.

{"compound": "CCOC(=O)C(=NN)C(=O)OCC", "testedTarget": "CD2F1 mice, L1210 leukemia ip, survival T/C", "T/C": "96 % of control"}
{"compound": "CC12CCCCC1=CC(=O)CC2 (configuration not stated)", "testedTarget": "CD2F1 mice, L1210 leukemia ip, survival T/C", "T/C": "97 % of control"}
{"compound": "Cc1ccc(S(=O)(=O)NC(Cc2ccccc2)C(=O)CCl)cc1 (configuration not stated)", "testedTarget": "CD2F1 mice, L1210 leukemia ip, survival T/C", "T/C": "96 % of control"}
{"compound": "CC(CN)OS(=O)(=O)O (configuration not stated)", "testedTarget": "CD2F1 mice, L1210 leukemia ip, survival T/C", "T/C": "105 % of control"}
{"compound": "CNC(C)C(O)c1ccccc1 (configuration not stated)", "testedTarget": "CD2F1 mice, L1210 leukemia ip, survival T/C", "T/C": "97 % of control"}
{"compound": "COC(=O)C(Cl)(Cl)N=Nc1c(Cl)cc(Cl)c(C)c1Cl", "testedTarget": "CD2F1 mice, L1210 leukemia ip, survival T/C", "T/C": "102 % of control"}
{"compound": "CCCCCCCC(=O)Nc1cccc(C)c1C", "testedTarget": "CD2F1 mice, L1210 leukemia ip, survival T/C", "T/C": "105 % of control"}
{"compound": "ClCc1ccc(Cl)c(Cl)c1Cl", "testedTarget": "CD2F1 mice, L1210 leukemia ip, survival T/C", "T/C": "100 % of control"}
{"compound": "CCCCCCCCOC(=O)c1ccccc1C(=O)OCCCCCCCC", "testedTarget": "CD2F1 mice, L1210 leukemia ip, survival T/C", "T/C": "110 % of control"}
{"compound": "CCN(CC)C(=O)c1cc[n+](Cc2ccc(Cl)c(Cl)c2)cc1", "testedTarget": "CD2F1 mice, L1210 leukemia ip, survival T/C", "T/C": "105 % of control"}
{"compound": "O=C(O)c1ccccc1C(=O)OC1CCC2CCCCC2C1 (configuration not stated)", "testedTarget": "CD2F1 mice, L1210 leukemia ip, survival T/C", "T/C": "98 % of control"}
{"compound": "N#CCCC(=O)c1nc(N)nc(N)n1", "testedTarget": "CD2F1 mice, L1210 leukemia ip, survival T/C", "T/C": "91 % of control"}
{"compound": "N#C/C(=N\\Nc1ccc(S(=O)(=O)O)cc1)C(N)=O", "testedTarget": "CD2F1 mice, L1210 leukemia ip, survival T/C", "T/C": "95 % of control"}
{"compound": "COc1ccc(N=c2ssc(SC)c2-c2ccccc2)cc1", "testedTarget": "CD2F1 mice, L1210 leukemia ip, survival T/C", "T/C": "103 % of control"}
{"compound": "CCC(=O)/C(=C\\c1ccccc1Cl)C(C)=O", "testedTarget": "CD2F1 mice, L1210 leukemia ip, survival T/C", "T/C": "100 % of control"}
{"compound": "COc1ccc(/C=N\\NC(=O)CCCCCCCCC(=O)N/N=C\\c2ccc(OC)c(O)c2)cc1O", "testedTarget": "CD2F1 mice, L1210 leukemia ip, survival T/C", "T/C": "97 % of control"}
{"compound": "CCC(CC)C(O)C(C)C(C)O (configuration not stated)", "testedTarget": "CD2F1 mice, L1210 leukemia ip, survival T/C", "T/C": "91 % of control"}
{"compound": "COc1ccc(N=C/C=C/c2ccccc2)cc1", "testedTarget": "CD2F1 mice, L1210 leukemia ip, survival T/C", "T/C": "97 % of control"}
{"compound": "C=CCC(C)(C#N)C1C=CCC1 (configuration not stated)", "testedTarget": "CD2F1 mice, L1210 leukemia ip, survival T/C", "T/C": "105 % of control"}
{"compound": "O=C1CC2C=CCC12 (configuration not stated)", "testedTarget": "CD2F1 mice, L1210 leukemia ip, survival T/C", "T/C": "98 % of control"}
{"compound": "CCOc1ccc2ccccc2c1C(=O)N(CCCl)CCCl", "testedTarget": "CD2F1 mice, L1210 leukemia ip, survival T/C", "T/C": "104 % of control"}
{"compound": "N#CC(/C=C/c1ccccc1)Nc1ccc(CCc2ccc(NC(C#N)/C=C/c3ccccc3)cc2)cc1 (configuration not stated)", "testedTarget": "CD2F1 mice, L1210 leukemia ip, survival T/C", "T/C": "94 % of control"}
{"compound": "Cc1cc(=O)[nH]c(N/N=C/c2ccc(N(C)C)cc2)n1", "testedTarget": "CD2F1 mice, L1210 leukemia ip, survival T/C", "T/C": "91 % of control"}
{"compound": "CN1CN(C2CCCCC2)CSC1=S", "testedTarget": "CD2F1 mice, L1210 leukemia ip, survival T/C", "T/C": "102 % of control"}
{"compound": "CCCC/C=C\\C1CCCCC1C (configuration not stated)", "testedTarget": "CD2F1 mice, L1210 leukemia ip, survival T/C", "T/C": "96 % of control"}
{"compound": "ClC1CCC[N-]C1.ClC1CCC[N-]C1.O=C(O)CC(=O)O.[Pt+2] (configuration not stated)", "testedTarget": "CD2F1 mice, L1210 leukemia ip, survival T/C", "T/C": "104 % of control"}
{"compound": "COC(=Nc1ccccc1)SSC(C)C", "testedTarget": "CD2F1 mice, L1210 leukemia ip, survival T/C", "T/C": "106 % of control"}
